Subject Of Test: 5-lipoxygenase (Homo sapiens, UniProt P09917)
Construct: endogenous in cells
Sequence (P09917 whole entry, species assumed): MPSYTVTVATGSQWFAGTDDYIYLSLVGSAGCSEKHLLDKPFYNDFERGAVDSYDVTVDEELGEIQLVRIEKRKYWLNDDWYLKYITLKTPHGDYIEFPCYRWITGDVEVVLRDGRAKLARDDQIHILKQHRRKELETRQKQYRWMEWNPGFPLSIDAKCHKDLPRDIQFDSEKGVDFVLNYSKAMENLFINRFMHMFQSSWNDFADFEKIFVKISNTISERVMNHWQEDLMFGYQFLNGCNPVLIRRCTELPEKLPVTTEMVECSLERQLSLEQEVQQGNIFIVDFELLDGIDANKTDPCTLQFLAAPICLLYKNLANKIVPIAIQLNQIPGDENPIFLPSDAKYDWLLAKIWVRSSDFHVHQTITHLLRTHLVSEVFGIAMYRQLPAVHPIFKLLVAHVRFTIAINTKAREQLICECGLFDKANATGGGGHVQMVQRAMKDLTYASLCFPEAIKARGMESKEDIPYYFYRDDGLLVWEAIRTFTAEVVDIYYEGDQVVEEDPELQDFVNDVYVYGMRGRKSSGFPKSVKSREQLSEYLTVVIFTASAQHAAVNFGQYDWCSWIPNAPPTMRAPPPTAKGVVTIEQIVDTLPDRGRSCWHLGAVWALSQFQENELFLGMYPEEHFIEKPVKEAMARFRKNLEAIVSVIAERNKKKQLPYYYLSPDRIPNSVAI
Protocol Notes: 5-lipoxygenase inhibition (neutrophil functions)
Assay Setup: read-out: IC₅₀ for 5-lipoxygenase
Experimental Endpoint: pIC50
// scale note: pIC50 = -log10(conc_M); give the bare number

Query block: Could you share which pIC50 value was measured for CN(C/C=C/c1ccc(O)cc1)Cc1cccc2ccccc12 [compound of the invention] ?
Result block: 4.36

----------
System: Macrophages isolated from the bone marrow of mice
Protocol Notes: Inhibition of Con A-stimulated plasminogen activator release
Assay type: cell-based
Assay Setup: Mus musculus, Macrophage; Con A 100 µg/ml, 24 hours; read-out: IC₅₀, Con A-stimulated plasminogen activator release
Experimental Endpoint: IC50 (nM)
Enter your answer as a number in nM; do not include the unit.

Query block: Record request: IC50 value, item `CN(C/C=C/c1ccc(O)cc1)Cc1cccc2ccccc12`
Result block: 1800
